experiment-summary: High Content Assay for Compounds that inhibit the Assembly of the Perinucleolar Compartment;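 also: plate controls were DMSO wells for no effect and camptothecin positive control wells for full effect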
test-settings: PC3M PTB-GFP, PNC prevalence imaging, 16 h; at 10 µM; hits give low values
In all, about 140,000 compounds went through this assay and about 4,300 (3.1%) were called active. Not shown: some 21% with an inconclusive outcome. Only a selection was taken, and actives are over-represented in it overall.
measurement-kind: activity change (PNC), negative = inhibition (%)

>>> obs_value("COC(=O)c1sccc1NC(=O)c1cc(OC)c(OC)c(OC)c1")
81.2
>>> obs_value("COC(=O)C1=C(C)N(C)C(C)=C(C(=O)OC)C1c1cccc(Br)c1")
20
>>> obs_value("O=S(=O)(NCC1CCCO1)c1cnc(Cl)c(Cl)c1 (stereo not given)")
-19.6
>>> obs_value("CCCCN(CC)C(=S)Nc1ccc2nc3n(c(=O)c2c1)CCCCC3")
41.2
>>> obs_value("CCCc1[nH]nc2c1C(C1CC=CCC1)C(C#N)=C(N)O2 (stereo not given)")
26.7
>>> obs_value("O=C(COc1ccccc1F)NNC(=O)c1ccc(N2CCCCC2)c([N+](=O)[O-])c1")
-26.5
>>> obs_value("Cc1ccc(NC(=O)c2oc(=O)c3ccccc3c2-c2ccccc2)c(C)c1")
36.6
>>> obs_value("O=C(c1ccc2c(c1)OCO2)N1CCOCC1")
-100
>>> obs_value("CCc1ccc(N2CC(C(=O)NC3=NCCS3)CC2=O)cc1 (stereo not given)")
10.4
>>> obs_value("CCCCOc1ccc(Cl)cc1CSc1nncn1N")
-89.7
>>> obs_value("O=C(c1cccs1)n1nc(NCc2ccccc2)nc1NCc1ccccc1")
-4.14
>>> obs_value("CCOC(=O)c1c(C)[nH]c(=S)c(C#N)c1-c1ccccc1")
32.4
>>> obs_value("CCc1nnc(NC(=O)C2CC(=O)N(c3ccc4c(c3)OCCO4)C2)s1 (stereo not given)")
-107
>>> obs_value("COc1cccc(N2CCN(C3CC(=O)N(c4ccc(Cl)cc4)C3=O)CC2)c1 (stereo not given)")
-3.5
>>> obs_value("CN(c1ccccc1)S(=O)(=O)c1ccc(Cl)c(C(=O)NCCc2c[nH]c3ccccc23)c1")
-83.7
>>> obs_value("Cc1cc(C)nc(N(C#N)CC(=O)Nc2ccccc2)n1")
-18.1
>>> obs_value("CC(=O)c1c(Nc2ccccc2)sc(C(=O)c2ccccc2)c1C")
73.7
>>> obs_value("COCc1[nH]nc2c1C(C1C=CCCC1)C(C#N)=C(N)O2 (stereo not given)")
-107
>>> obs_value("COc1ccc(N2C(=O)CC(N3CCC(C(N)=O)CC3)C2=O)cc1 (stereo not given)")
19.9
>>> obs_value("COc1ccc(N2CCN(C3CC(=O)N(c4ccc5c(c4)OCCO5)C3=O)CC2)cc1 (stereo not given)")
-84.9
>>> obs_value("COc1cccc(N2C(=O)CC(N3CCN(S(=O)(=O)c4ccccc4)CC3)C2=O)c1 (stereo not given)")
-19.9
>>> obs_value("N#Cc1c(NC(=O)CCCN2C(=O)c3ccccc3C2=O)oc(-c2ccccc2)c1-c1ccccc1")
-11.2
>>> obs_value("CN1CCN(c2ccc(S(=O)(=O)N3CCCCC3)cc2NC(=O)Cc2ccccc2F)CC1")
41.3
>>> obs_value("Cc1ccc(C(=O)CNc2ccc(F)cc2)cc1")
23.7
>>> obs_value("C=CCNC(=O)c1ccccc1NC(=O)c1ccc(Cl)c(S(=O)(=O)Nc2cccc(C)c2C)c1")
-8.83
>>> obs_value("CCOC(=O)NN1C(=O)c2ccccc2NC1c1cccc(O)c1 (stereo not given)")
-6.12
>>> obs_value("Cc1cc(=O)[nH]c(SCc2cc(Cl)ccc2OC(F)F)n1")
4.54
>>> obs_value("CC(C)c1ccc(N2CC(C(=O)Nc3nccs3)CC2=O)cc1 (stereo not given)")
21.8
>>> obs_value("O=[N+]([O-])c1ccc(NCCCO)c(C(F)(F)F)c1")
59.3
>>> obs_value("CCc1ccc(C2C(C#N)=C(N)Oc3n[nH]c(CC(=O)OC)c32)cc1 (stereo not given)")
18.8
>>> obs_value("COC(=O)C(C)N(C#N)c1nc(C)nc(C)n1 (stereo not given)")
10.7
>>> obs_value("O=C(c1ccc2c(c1)OCO2)N1CCNc2ccccc2C1")
-29.9
>>> obs_value("CCOC(=O)c1c(NC(=O)CCl)sc(C(=O)N(CC)CC)c1C")
4.89
>>> obs_value("CCN(CC)CCn1c(/N=C/c2cc(Br)ccc2O)nc2ccccc21")
21.6
>>> obs_value("COc1cc(C(=O)Nc2oc(-c3ccccc3)c(-c3ccccc3)c2C#N)cc(OC)c1OC")
-87.4
>>> obs_value("CCOC(=O)C1=C(C)N=C2c3ccccc3C(=O)C2C1c1ccc(Br)cc1 (stereo not given)")
-24.2
>>> obs_value("Cc1cc(Nc2ccccc2)n(CCC#N)n1")
-16.1
>>> obs_value("CCc1nnc(NC(=O)/C=C/c2ccc(C)o2)s1")
43.5
>>> obs_value("CC(C)C(C)NC(=O)COc1ncnc2ccccc12 (stereo not given)")
23
>>> obs_value("C=CCOc1ccc(/C=N/NC(=O)C(C)Sc2ccccn2)cc1OCC (stereo not given)")
17.5
>>> obs_value("O=C(c1ccc2c(c1)OCO2)N1CCN(C(=O)c2ccco2)CC1")
54.5
>>> obs_value("Cc1ccc(C)c2[nH]c(=O)c(CCNC(=O)c3cccs3)cc12")
36.1
>>> obs_value("Cc1ccc(-c2cc(C(=O)N/N=C/C=C/c3ccccc3)n[nH]2)o1")
-21.8
>>> obs_value("CCN(CC)S(=O)(=O)c1ccc2[nH]cc(C(=O)NCCc3ccccc3)c(=O)c2c1")
-4.74
>>> obs_value("COc1ccc(NC(=O)c2ccc(C#CC(C)(C)O)cc2)cc1")
-12.4

* * *

experiment-summary: High Content Assay for Compounds that inhibit the Assembly of the Perinucleolar Compartment;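 also: plate controls were DMSO wells for no effect and camptothecin positive control wells for full effect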
test-settings: PC3M PTB-GFP, PNC prevalence imaging, 16 h; at 10 µM; hits give low values
In all, about 140,000 compounds went through this assay and about 4,300 (3.1%) were called active. Not shown: some 21% with an inconclusive outcome. Many of the other results were omitted from the sample, so actives are more common in it than they were.
Values of activity change (PNC), negative = inhibition strictly less than -30% map to Satisfied, and values of at least -30% map to Not satisfied.

>>> class_label("O=C(COC(=O)/C=C/c1nc2ccccc2s1)Nc1ccccc1Oc1ccccc1")
"Satisfied"
>>> class_label("COc1ccc(N2C(=O)C(CC(=O)Nc3ccc(F)cc3)N(CCc3cccs3)C2=O)cc1 (stereo not given)")
"Not satisfied"
>>> class_label("CC(C)Oc1ccc(CC(=O)NNC(=S)Nc2ccc(Br)cc2)cc1")
"Satisfied"
>>> class_label("COC(=O)c1c(C)[nH]c(C(=O)/C=C/c2ccc(Cl)cc2)c1C")
"Not satisfied"
>>> class_label("COc1cc(/C=C/C(=O)OCC(=O)Nc2cccc(Oc3ccccc3)c2)ccc1O")
"Not satisfied"
>>> class_label("COc1ccc(/C=C/C(=O)OCC(=O)Nc2cccc(Oc3ccccc3)c2)c(OC)c1")
"Not satisfied"
>>> class_label("O=C(Nc1ccn(Cc2ccccc2)n1)c1n[nH]c([N+](=O)[O-])c1Cl")
"Not satisfied"
>>> class_label("COC(=O)Cc1ccc(NC(=S)NCc2ccccc2)cc1")
"Not satisfied"
>>> class_label("COc1ccc(CNC(=O)CN(Cc2ccc(Cl)cc2)S(C)(=O)=O)cc1")
"Not satisfied"
>>> class_label("COc1ccc(-n2nc3c(c2NC(=O)Cc2cccc(C)c2)CS(=O)C3)cc1 (stereo not given)")
"Not satisfied"

* * *

experiment-summary: High Content Assay for Compounds that inhibit the Assembly of the Perinucleolar Compartment;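 also: plate controls were DMSO wells for no effect and camptothecin positive control wells for full effect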
test-settings: PC3M PTB-GFP, PNC prevalence imaging, 16 h; at 10 µM; hits give low values
Experimental: High Content Assay for Compounds that inhibit the Assembly of the Perinucleolar Compartment NIH Chemical Genomics Center [NCGC] NIH Molecular Libraries Probe Centers Network [MLPCN] […] PNC High Content Imaging Assay Procedure: 1. […] PNC prevalence was determined using the Multitarget analysis module from InCell Workstation software (V3.5 ) and analysis was run on a quad core workstation using the Incell Developer Toolbox (V1.7). […]
Screen size: about 140,000 compounds; about 4,300 (3.1%) were called active. Roughly 21% stayed inconclusive and do not appear here. The sample as a whole holds a higher share of actives than the screen did.
measurement-kind: activity change (PNC), negative = inhibition (%)

>>> obs_value("CCOc1ccccc1C(=O)NCCCn1ccnc1")
15.6
>>> obs_value("COC(=O)[C@@H]1CC[C@H](C)[C@@H](c2ccc(C)cc2)N1C(=O)c1ccc(/C=N/O[C@H](C)c2cn([C@@H]3COC[C@H]3O)nn2)cc1")
39.9
>>> obs_value("CCOC(=O)c1sc(NC(=O)c2cc(S(=O)(=O)N3CCOCC3)ccc2C)nc1C")
-23.4
>>> obs_value("Cc1nc2ccccc2c(=O)n1CCCn1ccnc1")
-81.9
>>> obs_value("Cc1ccc(OCCOCCOc2ccc(Br)cc2/C=N\\NC(=O)c2ccncc2)cc1")
-9.62
>>> obs_value("CCN(CC)CCNC(=O)Cn1cnc2sc(C)c(S(=O)(=O)N3CCOCC3)c2c1=O")
-100
>>> obs_value("O=C(CCN1C(=O)C2C3C=CC(C3)C2C1=O)Nc1ccccc1F (stereo not given)")
25
>>> obs_value("O=C(COC(=O)Cc1ccc(Br)cc1)Nc1c(F)c(F)c(F)c(F)c1F")
16.2
>>> obs_value("O=C(CCCN1C(=O)C2C3C=CC(C3)C2C1=O)N1CCN(c2ccccc2)CC1 (stereo not given)")
-106
>>> obs_value("COc1cccc(NC(=O)CN2CCN(c3nc(-c4cccc(OC)c4)cs3)CC2)c1")
43

These measurements were taken from PubChem BioAssay AID2417.
